System: clinical MDR Staphylococcus epidermidis isolates
Experiment Notes: MIC, broth microdilution, 81 clinical MDR strains
Assay type: cell-based
Conditions: Staphylococcus epidermidis, clinical strain 37 (Table S2); read-out: MIC
Below: a set of entries, each annotated with reported MIC.
Entry format: amount then unit.

# example entries with known answers
O=S(=O)(NC1CCN(CCC(Oc2ccc(C(F)(F)F)cc2)c2cccs2)CC1)c1cccc(C(F)(F)F)c1 (stereo not drawn) | 50 µg/mL
O=S(=O)(NC1CCN(CCC(Oc2ccc(C(F)(F)F)cc2)c2cccs2)CC1)c1cccc(Cl)c1 (stereo not drawn) | 12.5 µg/mL
O=S(=O)(NC1CCN(CCC(Oc2ccc(C(F)(F)F)cc2)c2ccccc2)CC1)c1cccc(Cl)c1 (stereo not drawn) | 50 µg/mL
CC(=O)NC[C@H]1CN(c2ccc(N3CCOCC3)c(F)c2)C(=O)O1 [linezolid, reference compound] | 0.8 µg/mL
O=S(=O)(NC1CCN(CCC(Oc2ccc(C(F)(F)F)cc2)c2cccs2)CC1)c1cccc(Br)c1 (stereo not drawn) | 50 µg/mL

Note: attention shifts to another entry.
Entry O=C(Nc1cccc(Cl)c1)NC1CCN(CCC(Oc2ccc(C(F)(F)F)cc2)c2cccs2)CC1 (stereo not drawn) has what MIC?
1.6 µg/mL
